Below, each of the compounds is paired with its reported activation value.
Target: CCR6 (Homo sapiens, UniProt P51684)
Construct: expressed in transfected cells
Sequence (P51684 1-374): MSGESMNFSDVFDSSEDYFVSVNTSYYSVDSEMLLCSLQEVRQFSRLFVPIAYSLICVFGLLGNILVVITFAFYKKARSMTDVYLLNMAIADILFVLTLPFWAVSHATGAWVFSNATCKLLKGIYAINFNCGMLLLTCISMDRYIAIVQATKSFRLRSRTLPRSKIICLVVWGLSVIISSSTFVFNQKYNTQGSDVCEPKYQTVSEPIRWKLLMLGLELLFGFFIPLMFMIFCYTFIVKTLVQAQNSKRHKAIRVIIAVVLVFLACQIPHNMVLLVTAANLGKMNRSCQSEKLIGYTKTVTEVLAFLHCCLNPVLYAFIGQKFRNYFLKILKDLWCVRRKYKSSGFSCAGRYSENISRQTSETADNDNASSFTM
Test: Figure S2a opioid peptide screen on chemokine receptors
Format: cell-based
Design: dose or concentration left out as unconfirmed
Details: replicate 2, read-out: CCR6 activity, ctrl+ = 100
Enter your answer as a number in %; do not include the unit.

Known activation results, listed for orientation:
* CC(C)C[C@H](NC(=O)[C@H](Cc1ccccc1)NC(=O)CNC(=O)CNC(=O)[C@@H](N)Cc1ccc(O)cc1)C(=O)N[C@@H](CCCN=C(N)N)C(=O)N[C@@H](CCCN=C(N)N)C(=O)N[C@@H](CCC(N)=O)C(=O)N[C@@H](Cc1ccccc1)C(=O)N[C@@H](CCCCN)C(=O)N[C@H](C(=O)N[C@H](C(=O)N[C@H](C(=O)O)[C@@H](C)O)C(C)C)C(C)C [Dynorphin B] | -0.375
* CC[C@H](C)[C@H](NC(=O)[C@H](CCCNC(=N)N)NC(=O)[C@H](CCCNC(=N)N)NC(=O)[C@H](CC(C)C)NC(=O)[C@H](Cc1ccccc1)NC(=O)CNC(=O)CNC(=O)[C@@H](N)Cc1ccc(O)cc1)C(=O)N[C@@H](CCCNC(=N)N)C(=O)N1CCC[C@H]1C(=O)N[C@@H](CCCCN)C(=O)N[C@@H](CC(C)C)C(=O)N[C@@H](CCCCN)C(=O)O [Dynorphin 1-13] | -0.732

Now turn to the next compound.
Prompt line: Reported activation for CCR6 (Homo sapiens, UniProt P51684), given NC(=O)[C@H](Cc1ccccc1)NC(=O)[C@H](Cc1c[nH]c2ccccc12)NC(=O)[C@@H]1CCCN1C(=O)[C@@H](N)Cc1ccc(O)cc1 [Endomorphin-1] ?
Response line: 2.69
